For each record, write down the corresponding koff.
Biological target: T1, human CD3 E&D complex protein (Sino Biological Inc., CT026H0323H) (human, UniProt P07766 23-126; P04234 22-105)
T1 construct: bought heterodimer; also called human CD3 protein (CT026H0323H)
T1 sequence (P07766 23-126, chain 1 of 2): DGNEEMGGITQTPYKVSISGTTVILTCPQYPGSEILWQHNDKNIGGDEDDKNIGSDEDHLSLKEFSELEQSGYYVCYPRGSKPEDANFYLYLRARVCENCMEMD
T1 sequence (P04234 22-105, chain 2 of 2): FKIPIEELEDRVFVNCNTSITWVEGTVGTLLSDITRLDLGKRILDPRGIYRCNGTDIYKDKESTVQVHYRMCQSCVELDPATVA
Assay: BLI, antibody on sensor
# output: bare number, implied unit s⁻¹

Q) Name the recorded koff of the item hzsp34.113 (antibody, human IgG1, lambda, L234A L235A, V domains shown, CDR mutant of hzsp34.24; IgG1 L234A L235A, lambda) VH: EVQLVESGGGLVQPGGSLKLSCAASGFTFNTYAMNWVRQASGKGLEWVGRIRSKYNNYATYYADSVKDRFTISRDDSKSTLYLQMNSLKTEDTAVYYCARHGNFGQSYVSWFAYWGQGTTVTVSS VL: QAVVTQEPSLTVSPGGTVTLTCRSSTGAVTTSNYANWVQQKPGQAPRGLIGGTNKRAPGVPARFSGSLLGDKAALTLLGAQPEDEAEYYCALAASNLWVFGQGTKLTVLG in your answer.
A) 0.0002

Q) Name the recorded koff of the item hzsp34.97 (antibody, human IgG1, lambda, L234A L235A, V domains shown, CDR mutant of hzsp34.24; IgG1 L234A L235A, lambda) VH: EVQLVESGGGLVQPGGSLKLSCAASGFTFNTYAMNWVRQASGKGLEWVGRIRSKAGGYATYYADSVKDRFTISRDDSKSTLYLQMNSLKTEDTAVYYCARHGNFGQSYVSWFAYWGQGTTVTVSS VL: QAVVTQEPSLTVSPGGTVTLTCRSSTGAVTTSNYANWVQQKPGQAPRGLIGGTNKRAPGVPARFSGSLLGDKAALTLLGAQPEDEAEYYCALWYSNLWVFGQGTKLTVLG in your answer.
A) 0.00156

Q) Name the recorded koff of the item hzsp34.103 (antibody, human IgG1, lambda, L234A L235A, V domains shown, CDR mutant of hzsp34.24; IgG1 L234A L235A, lambda) VH: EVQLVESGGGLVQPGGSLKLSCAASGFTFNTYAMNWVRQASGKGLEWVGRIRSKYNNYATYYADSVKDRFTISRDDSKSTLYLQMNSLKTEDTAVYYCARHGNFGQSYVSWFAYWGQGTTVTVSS VL: QAVVTQEPSLTVSPGGTVTLTCRSSTGAVGTSNYANWVQQKPGQAPRGLIGGTNKRAPGVPARFSGSLLGDKAALTLLGAQPEDEAEYYCALWYSNLWVFGQGTKLTVLG in your answer.
A) 0.000325

meta.source: patent US20230374132A1
